The origin of these recorded values is patent US20150376265A1.

Molecular target: T1, soluble baculovirus-expressed gH/gL (HCMV, UniProt P12824 24-720; P16832 31-278)
T1 construct: also called gH/gL dimer produced in baculovirus; baculovirus expressed, secreted gH/gL
T1 sequence 1: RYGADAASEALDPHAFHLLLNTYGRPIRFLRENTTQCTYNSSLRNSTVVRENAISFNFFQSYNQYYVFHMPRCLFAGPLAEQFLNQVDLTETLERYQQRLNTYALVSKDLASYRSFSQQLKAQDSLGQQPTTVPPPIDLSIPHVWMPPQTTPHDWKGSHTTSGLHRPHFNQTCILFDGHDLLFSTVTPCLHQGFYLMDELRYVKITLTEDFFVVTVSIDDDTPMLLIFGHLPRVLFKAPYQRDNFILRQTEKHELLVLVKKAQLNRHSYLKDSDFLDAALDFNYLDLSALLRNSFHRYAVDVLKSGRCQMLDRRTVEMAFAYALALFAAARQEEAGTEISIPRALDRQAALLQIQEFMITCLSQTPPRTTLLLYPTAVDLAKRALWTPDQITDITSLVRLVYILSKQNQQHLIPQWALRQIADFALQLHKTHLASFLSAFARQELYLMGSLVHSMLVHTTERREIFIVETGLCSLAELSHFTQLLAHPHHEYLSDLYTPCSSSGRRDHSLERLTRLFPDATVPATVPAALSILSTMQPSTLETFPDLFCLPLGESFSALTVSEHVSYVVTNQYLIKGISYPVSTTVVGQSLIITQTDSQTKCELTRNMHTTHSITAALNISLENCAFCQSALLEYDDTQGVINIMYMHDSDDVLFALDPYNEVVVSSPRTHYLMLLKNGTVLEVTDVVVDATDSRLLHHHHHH
T1 sequence 2: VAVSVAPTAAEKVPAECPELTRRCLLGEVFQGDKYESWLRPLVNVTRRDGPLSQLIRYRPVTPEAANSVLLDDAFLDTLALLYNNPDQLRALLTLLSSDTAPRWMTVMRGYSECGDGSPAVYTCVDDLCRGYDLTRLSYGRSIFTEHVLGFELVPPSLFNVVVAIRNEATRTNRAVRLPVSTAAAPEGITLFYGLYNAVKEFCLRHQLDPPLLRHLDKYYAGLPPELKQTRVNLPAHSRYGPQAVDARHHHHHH
Assay: competition phage ELISA: phage-displayed Fab with serially diluted soluble gH/gL, free phage caught on coated gH/gL
READOUT_NAME: pIC50
Numbers only, as −log10 of the molar value.

Provide one value: measured pIC50 of MSL-109 Fab variant H2-T55R (Fab, name in Kabat numbering, V domains shown) VH: EEQVLESGGGLVKPGGSLRLSCAASGFTFSPYSVFWVRQAPGKGLEWVSSINSDSRYKYYADSVKGRFTISRDNAENSIFLQMNSLRAEDTAVYYCARDRSYYAFSSGSLSDYYYGLDVWGQGTLVTVSS VL: DIVMTQSPLSLSVTPGEPASISCRSSQSLLHTNGYNYLDWYVQKPGQSPQLLIYLASNRASGVPDRFSGSGSGTDFTLKISRVETEDVGVYYCMQALQIPRTFGQGTKVEIK
9.77
